These entries and their values trace back to the supplement of paper PMC10037445.

# Tested on: RAW-Dual
# Experiment description: NF-kB SEAP reporter activity, fold change vs agonist alone; cytotoxicity flag (confluency mask): not cytotoxic; higher = enhanced NF-kB activity
# Assay context: agonist: LPS (TLR4) 0.1 ug/mL
In all, about 2,900 compounds were measured (“NF-kB SEAP reporter activity, fold change vs agonist alone”: median about 0.99, highest 2% from about 2.6 on). What follows is part of a selection rich in the highest values, with near analogues and random picks from the rest.
Readout type: NF-kB SEAP reporter activity
Lab note: jot the number down without any unit.

Worked examples, 3 compounds total:
C=C1CCC2C(C)(COC(=O)CCC(=O)O)C(OC(=O)CCC(=O)O)CCC2(C)C1/C=C/C1=CCOC1=O (stereo unspecified) (library stock concentration (final ~1000-fold dilution): 10 mM) : 0.94
CCN(CC)CCCCC(NC(=O)C(CC(C)C)NC(=O)C(C)NC(=O)C(Cc1ccccc1)NC(=O)c1ccc(C(C)(C)C)cc1)C(=O)NC(CO)C(=O)OC (stereo unspecified) (library stock concentration (final ~1000-fold dilution): 10 mM) : 0.99
Cc1nnc(C(C)C)n1C1CC2CCC(C1)N2CCC(NC(=O)C1CCC(F)(F)CC1)c1ccccc1 (stereo unspecified) (library stock concentration (final ~1000-fold dilution): 10 mM) : 0.973

## Task Look at this compound and give its reported NF-kB SEAP reporter activity. O=C1C(Cc2ccc(O)cc2)N2C(=O)CCN(C(=O)NCc3ccccc3)C2CN1Cc1cccc2ccccc12 (stereo unspecified) (library stock concentration (final ~1000-fold dilution): 10 mM)
## Result 3.72

## Task Another: COC(=O)C(CC(C)C)NC(=O)c1ccc(NCC(N)CS)cc1-c1cccc2ccccc12.O=C(O)C(F)(F)F (stereo unspecified) (library stock concentration (final ~1000-fold dilution): 10 mM)
## Result 3.82

## Task Another: Nc1ccccc1NC(=O)c1ccc(CNC(=O)OCc2cccnc2)cc1 (library stock concentration (final ~1000-fold dilution): 10 mM)
## Result 1.22

## Task Another: COC(=O)C(CCSC)NC(=O)c1ccc(NCC(N)CS)cc1-c1ccccc1.Cl (stereo unspecified) (library stock concentration (final ~1000-fold dilution): 10 mM)
## Result 1.38

## Task Another: Cc1c(CN2CCC(Nc3ncnc4sc(CC(F)(F)F)cc34)CC2)ccc2[nH]c(C#N)cc12 (library stock concentration (final ~1000-fold dilution): 10 mM)
## Result 1.32

## Task Another: CCCCNc1ccc(C(=O)OCCN(C)C)cc1.Cl (library stock concentration (final ~1000-fold dilution): 10 mM)
## Result 1.38

## Task Another: O=C(CCNNC(=O)c1ccncc1)NCc1ccccc1 (library stock concentration (final ~1000-fold dilution): 10 mM)
## Result 0.997

## Task Another: CCCCNNC(=O)c1ccc(Br)cc1 (library stock concentration (final ~1000-fold dilution): 10 mM)
## Result 3.15

---

NF-kB SEAP reporter activity values for the compounds below.
# Test system: RAW-Dual
# Experiment description: NF-kB SEAP reporter activity, fold change vs agonist alone; cytotoxicity flag (confluency mask): not cytotoxic; higher = enhanced NF-kB activity
# Assay context: agonist: LPS (TLR4) 0.1 ug/mL
Whole data set: some 2,900 compounds, median “NF-kB SEAP reporter activity, fold change vs agonist alone” near 0.99, cut for the highest 2% near 2.6. For the sample, the highest values were picked, then their nearest neighbours and some compounds at random.
Lab note: jot the number down without any unit.

Worked examples, 4 compounds total:
CC(=O)N1c2ccc(-c3ccc(C(=O)O)cc3)cc2C(Nc2ccc(Cl)cc2)CC1C (stereo not given) (library stock concentration (final ~1000-fold dilution): 10 mM) : 4.2
Cc1ccc(-n2nc(C(C)(C)C)cc2NC(=O)Nc2ccc(OCCN3CCOCC3)c3ccccc23)cc1 (library stock concentration (final ~1000-fold dilution): 10 mM) : 0.477
CNC(=O)c1ccc(-c2cnc3cnc(-c4ccccc4)cn23)cc1 (library stock concentration (final ~1000-fold dilution): 10 mM) : 1.54
CCOC(=O)NC1CCC2C(C1)CC1C(=O)OC(C)C1C2/C=C/c1ccc(-c2cccc(F)c2)cn1 (stereo not given) (library stock concentration (final ~1000-fold dilution): 10 mM) : 0.824

## Task Look at this compound and give its reported NF-kB SEAP reporter activity. CCC1OC(=O)C(C)C(OC2CC(C)(OC)C(O)C(C)O2)C(C)C(OC2OC(C)CC(N(C)C)C2O)C(C)(O)CC(C)C(=O)C(C)C(O)C1(C)O.N#CS (stereo not given) (library stock concentration (final ~1000-fold dilution): 10 mM)
## Result 1.06
